- Tested on: P. falciparum chloroquine-resistant W2-strain
- method_summary: In vitro drug susceptibility assay ([3H]-hypoxanthine incorporation), W2 strain
- Type: cell-based
- run_conditions: Plasmodium falciparum; Table 4, W2; read-out: IC50 P. falciparum (W2)
assay_metric: IC50 (µg/mL)

compound | assay_metric | result_value
COC1CCCN[C@@H]1CC(=O)Cn1cnc2cc3c(cc2c1=O)OCO3 (some centres unmarked) | IC50 | 0.0234
C=CCOC(=O)N1CCCC(OC)[C@H]1CC(=O)Cn1cnc2cc3c(cc2c1=O)OCO3 (some centres unmarked) | IC50 | 0.129
COC1CCCN[C@@H]1CC(=O)Cn1cnc2ccc3c(c2c1=O)OCO3 (some centres unmarked) | IC50 | 0.0151
O=C(C[C@H]1CCCCN1C(=O)c1ccccc1)Cn1cnc2ccccc2c1=O | IC50 | 0.284
O=C(C[C@H]1NCCCC1O)Cn1cnc2cccc(Cl)c2c1=O (some centres unmarked) | IC50 | 0.00146

(A) O=C(C[C@H]1NCCCC1O)Cn1cnc2cc3c(cc2c1=O)OCO3 (some centres unmarked)
(B) O=C(C[C@H]1NCCCC1O)Cn1cnc2c(Cl)c(Cl)c(Cl)cc2c1=O (some centres unmarked)
(C) C=CCOC(=O)N1CCCC(OCC)[C@H]1CC(=O)Cn1cnc2ccccc2c1=O (some centres unmarked)
Rank items: key IC50, increasing. Answer format: the labels, ordered as requested.
B, A, C
(B: 0.00098 µg/mL, A: 0.00293 µg/mL, C: 0.245 µg/mL)
